# activity at 10 µM listing for each entry below
molecular target: α1β2γ2 GABAA receptor (Homo sapiens (Human), UniProt P14867+P47870); test: Patch clamp electrophysiology of recombinant α1β2γ2 GABAA receptors in LTK cells; assay type: cell-based; details: LTK, 10 μM compound, Qpatch, Ltk cells, GABA EC20 2 μM; read-out: α1β2γ2 GABA Qpatch in Ltk (Efficacy at 10 μm)

Example entries begin here.
C[C@@]1(O)CC[C@H]2[C@H](CC[C@@H]3[C@@H]2CC[C@]2(C)[C@@H](C(=O)Cn4cc5ncncc5n4)CC[C@@H]32)C1 > 500%
CC[C@@]1(O)CC[C@H]2[C@H](CC[C@@H]3[C@@H]2CC[C@]2(C)[C@@H](C(=O)Cn4nnc5ccncc54)CC[C@@H]32)C1 100 to 500%

// recorded activity at 10 µM for C[C@]12CC[C@H]3[C@@H](CC[C@@H]4C[C@@](O)(C(F)F)CC[C@@H]43)[C@@H]1CC[C@@H]2C(=O)Cn1nc2ccncc2n1 : > 500%

// recorded activity at 10 µM for COC[C@@]1(O)CC[C@H]2[C@H](CC[C@@H]3[C@@H]2CC[C@]2(C)[C@@H](C(=O)Cn4cc5ncccc5n4)CC[C@@H]32)C1 : > 500%

// recorded activity at 10 µM for Cc1cc2cnn(CC(=O)[C@H]3CC[C@H]4[C@@H]5CC[C@@H]6C[C@](C)(O)CC[C@@H]6[C@H]5CC[C@]34C)c2cn1 : > 500%

// recorded activity at 10 µM for C[C@]12CC[C@H]3[C@@H](CC[C@H]4C[C@@](O)(CF)CC[C@@H]43)[C@@H]1CC[C@@H]2C(=O)Cn1nc2ccc(F)cc2n1 : 100 to 500%

---

molecular target: α4β3δ GABAA receptor (Homo sapiens (Human), UniProt P28472+P48169); test: Patch clamp electrophysiology of recombinant α4β3δ GABAA receptors in CHO cells; assay type: cell-based; conditions: 10 μM compound, manual patch, GABA EC20 2 μM, read-out: α4β3δ GABA Manual Patch in CHO (Efficacy at 10 μM)
# activity at 10 µM listing for each entry below

Example entries begin here.
C[C@@]1(O)CC[C@H]2[C@H](CC[C@@H]3[C@@H]2CC[C@]2(C)[C@@H](C(=O)Cn4cc5ccc(F)cc5n4)CC[C@@H]32)C1 100 to 500%
C[C@@]1(O)CC[C@H]2[C@H](CC[C@@H]3[C@@H]2CC[C@]2(C)[C@@H](C(=O)Cn4cc5cc(Cl)ncc5n4)CC[C@@H]32)C1 > 500%

Now take the following compound into account.
// recorded activity at 10 µM for C[C@@]1(O)CC[C@H]2[C@H](CC[C@@H]3[C@@H]2CC[C@]2(C)[C@@H](C(=O)Cn4nc5ccc(Cl)cc5n4)CC[C@@H]32)C1 : 100 to 500%

---

target: α4β3δ GABAA receptor (Homo sapiens (Human), UniProt P28472+P48169); assay: Patch clamp electrophysiology of recombinant α4β3δ GABAA receptors in CHO cells; type: cell-based; conditions: 10 μM compound, manual patch, GABA EC20 2 μM, read-out: α4β3δ GABA Manual Patch in CHO (Efficacy at 10 μM)
PROPERTY_LABEL: activity at 10 µM

Example entries begin here.
C[C@]12CC[C@H]3[C@@H](CC[C@@H]4C[C@@](O)(CF)CC[C@@H]43)[C@@H]1CC[C@@H]2C(=O)Cn1cc2ncccc2n1 100 to 500%
C[C@@]1(O)CC[C@H]2[C@H](CC[C@@H]3[C@@H]2CC[C@]2(C)[C@@H](C(=O)Cn4cc5ncncc5n4)CC[C@@H]32)C1 > 500%

// recorded activity at 10 µM for Cc1ccc2nn(CC(=O)[C@H]3CC[C@H]4[C@@H]5CC[C@@H]6C[C@](C)(O)CC[C@@H]6[C@H]5CC[C@]34C)nc2c1 : 100 to 500%

// recorded activity at 10 µM for C[C@@]1(O)CC[C@H]2[C@H](CC[C@@H]3[C@@H]2CC[C@]2(C)[C@@H](C(=O)Cn4nc5ccccc5n4)CC[C@@H]32)C1 : > 500%

// recorded activity at 10 µM for C[C@@]1(O)CC[C@H]2[C@H](CC[C@@H]3[C@@H]2CC[C@]2(C)[C@@H](C(=O)Cn4nc5cc(Cl)cnc5n4)CC[C@@H]32)C1 : 100 to 500%

// recorded activity at 10 µM for C[C@@]1(O)CC[C@H]2[C@H](CC[C@@H]3[C@@H]2CC[C@]2(C)[C@@H](C(=O)Cn4nc5ccncc5n4)CC[C@@H]32)C1 : 100 to 500%

// recorded activity at 10 µM for COC[C@@]1(O)CC[C@H]2[C@@H](CC[C@@H]3[C@@H]2CC[C@]2(C)[C@@H](C(=O)Cn4nc5ccccc5n4)CC[C@@H]32)C1 : 100 to 500%

// recorded activity at 10 µM for C[C@@]1(O)CC[C@H]2[C@H](CC[C@@H]3[C@@H]2CC[C@]2(C)[C@@H](C(=O)Cn4cc5cncnc5n4)CC[C@@H]32)C1 : > 500%

// recorded activity at 10 µM for COC[C@@]1(O)CC[C@H]2[C@H](CC[C@@H]3[C@@H]2CC[C@]2(C)[C@@H](C(=O)Cn4nc5ccncc5n4)CC[C@@H]32)C1 : 100 to 500%

// recorded activity at 10 µM for C[C@@]1(O)CC[C@H]2[C@H](CC[C@@H]3[C@@H]2CC[C@]2(C)[C@@H](C(=O)Cn4nc5cccnc5n4)CC[C@@H]32)C1 : 100 to 500%

// recorded activity at 10 µM for Cc1cc2cn(CC(=O)[C@H]3CC[C@H]4[C@@H]5CC[C@@H]6C[C@](C)(O)CC[C@@H]6[C@H]5CC[C@]34C)nc2cn1 : 100 to 500%

// recorded activity at 10 µM for C[C@@]1(O)CC[C@H]2[C@H](CC[C@@H]3[C@@H]2CC[C@]2(C)[C@@H](C(=O)Cn4cc5ncc(Cl)cc5n4)CC[C@@H]32)C1 : 100 to 500%
